Where a name gives a salt, the structure may show the parent alone.
Here's a batch of compounds along with measured IC50 for cathepsin B (Homo sapiens).
RESULT_TYPE: IC50 (µM)

| COMPOUND | RESULT |
| --- | --- |
| Cc1ccc(C(=O)ONC(=O)[C@H](Cc2ccccc2)NC(=O)CN)cc1 [compound 12, TFA*H-Gly-L-Phe-NHO-Bz-p-CH3] | 34 |
| NCC(=O)N[C@@H](Cc1ccccc1)C(=O)NOC(=O)c1ccccc1 [compound 11, TFA*H-Gly-L-Phe-NHO-Bz] | 37.7 |
| CNCC(=O)N[C@@H](Cc1ccccc1)C(=O)NOC(=O)c1ccccc1 [compound 14, TFA*H-Sar-L-Phe-NHO-Bz] | 41.8 |
| CC(=O)ONC(=O)[C@H](Cc1ccccc1)NC(=O)CN [compound 10, TFA*H-Gly-L-Phe-NHO-Ac] | 117 |
| NCC(=O)N[C@@H](Cc1ccccc1)C(=O)NOC(=O)c1ccc([N+](=O)[O-])cc1 [compound 13, TFA*H-Gly-L-Phe-NHO-Bz-p-NO2] | 5.31 |

----------
SYSTEM_TESTED: cathepsin L (Homo sapiens, UniProt P07711)
Sequence (P07711 114-333): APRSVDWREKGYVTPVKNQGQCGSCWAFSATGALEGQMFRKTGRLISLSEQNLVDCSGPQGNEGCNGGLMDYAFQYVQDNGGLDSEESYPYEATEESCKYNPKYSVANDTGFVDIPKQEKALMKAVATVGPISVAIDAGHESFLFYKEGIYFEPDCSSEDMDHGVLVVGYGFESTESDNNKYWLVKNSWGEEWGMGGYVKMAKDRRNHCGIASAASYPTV
Where a name gives a salt, the structure may show the parent alone.
In this section, each of the molecules is paired with its reported IC50.

| MOLECULE | IC50, µM |
| --- | --- |
| CC(=O)ONC(=O)[C@H](Cc1ccccc1)NC(=O)CN [compound 10, TFA*H-Gly-L-Phe-NHO-Ac] | 156 |
| NCC(=O)N[C@@H](Cc1ccccc1)C(=O)NOC(=O)c1ccc([N+](=O)[O-])cc1 [compound 13, TFA*H-Gly-L-Phe-NHO-Bz-p-NO2] | 7.32 |
| CNCC(=O)N[C@@H](Cc1ccccc1)C(=O)NOC(=O)c1ccccc1 [compound 14, TFA*H-Sar-L-Phe-NHO-Bz] | 4.61 |
| NCC(=O)N[C@@H](Cc1ccccc1)C(=O)NOC(=O)c1ccccc1 [compound 11, TFA*H-Gly-L-Phe-NHO-Bz] | 36.9 |
| Cc1ccc(C(=O)ONC(=O)[C@H](Cc2ccccc2)NC(=O)CN)cc1 [compound 12, TFA*H-Gly-L-Phe-NHO-Bz-p-CH3] | 33.1 |

----------
SYSTEM_TESTED: DP I (Rattus norvegicus, UniProt P80067)
Construct: purchased Qiagen
Sequence (P80067 25-134 limits assumed): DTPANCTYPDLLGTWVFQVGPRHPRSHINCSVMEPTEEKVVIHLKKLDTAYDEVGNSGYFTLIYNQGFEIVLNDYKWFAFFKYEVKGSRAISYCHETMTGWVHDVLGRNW
Sequence (P80067 230-393 limits assumed): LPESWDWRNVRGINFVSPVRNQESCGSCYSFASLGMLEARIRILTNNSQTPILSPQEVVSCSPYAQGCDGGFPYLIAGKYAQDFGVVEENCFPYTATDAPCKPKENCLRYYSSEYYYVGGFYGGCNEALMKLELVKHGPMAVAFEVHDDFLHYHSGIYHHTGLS
Sequence (P80067 394-462 limits assumed): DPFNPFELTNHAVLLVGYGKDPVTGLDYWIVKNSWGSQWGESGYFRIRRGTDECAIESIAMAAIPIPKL
TEST_SUMMARY: determination of second order rate constant kinact/Ki for DP I
Type: biochemical
CONDITION_LABEL: substrate Gly-Arg-pNA 1 mM and 0.5 mM
Structures can show the parent of a compound that is named as a salt.
In this section, each of the compounds is paired with its reported kinact/KI.

| COMPOUND | kinact/KI [M⁻¹ s⁻¹] |
| --- | --- |
| CNCC(=O)N[C@@H](Cc1ccccc1)C(=O)NOC(=O)c1ccccc1 [compound 14, TFA*H-Sar-L-Phe-NHO-Bz] | 140000 |
| NCC(=O)N[C@@H](Cc1ccccc1)C(=O)NOC(=O)c1ccccc1 [compound 11, TFA*H-Gly-L-Phe-NHO-Bz] | 400000 |
| Cc1ccc(C(=O)ONC(=O)[C@H](Cc2ccccc2)NC(=O)CN)cc1 [compound 12, TFA*H-Gly-L-Phe-NHO-Bz-p-CH3] | 19000 |
| NCC(=O)N[C@@H](Cc1ccccc1)C(=O)NOC(=O)c1ccc([N+](=O)[O-])cc1 [compound 13, TFA*H-Gly-L-Phe-NHO-Bz-p-NO2] | 79000 |
| CC(=O)ONC(=O)[C@H](Cc1ccccc1)NC(=O)CN [compound 10, TFA*H-Gly-L-Phe-NHO-Ac] | 39000 |
